biological target: RON (Homo sapiens, UniProt Q04912)
Sequence (Q04912 25-1400, species assumed): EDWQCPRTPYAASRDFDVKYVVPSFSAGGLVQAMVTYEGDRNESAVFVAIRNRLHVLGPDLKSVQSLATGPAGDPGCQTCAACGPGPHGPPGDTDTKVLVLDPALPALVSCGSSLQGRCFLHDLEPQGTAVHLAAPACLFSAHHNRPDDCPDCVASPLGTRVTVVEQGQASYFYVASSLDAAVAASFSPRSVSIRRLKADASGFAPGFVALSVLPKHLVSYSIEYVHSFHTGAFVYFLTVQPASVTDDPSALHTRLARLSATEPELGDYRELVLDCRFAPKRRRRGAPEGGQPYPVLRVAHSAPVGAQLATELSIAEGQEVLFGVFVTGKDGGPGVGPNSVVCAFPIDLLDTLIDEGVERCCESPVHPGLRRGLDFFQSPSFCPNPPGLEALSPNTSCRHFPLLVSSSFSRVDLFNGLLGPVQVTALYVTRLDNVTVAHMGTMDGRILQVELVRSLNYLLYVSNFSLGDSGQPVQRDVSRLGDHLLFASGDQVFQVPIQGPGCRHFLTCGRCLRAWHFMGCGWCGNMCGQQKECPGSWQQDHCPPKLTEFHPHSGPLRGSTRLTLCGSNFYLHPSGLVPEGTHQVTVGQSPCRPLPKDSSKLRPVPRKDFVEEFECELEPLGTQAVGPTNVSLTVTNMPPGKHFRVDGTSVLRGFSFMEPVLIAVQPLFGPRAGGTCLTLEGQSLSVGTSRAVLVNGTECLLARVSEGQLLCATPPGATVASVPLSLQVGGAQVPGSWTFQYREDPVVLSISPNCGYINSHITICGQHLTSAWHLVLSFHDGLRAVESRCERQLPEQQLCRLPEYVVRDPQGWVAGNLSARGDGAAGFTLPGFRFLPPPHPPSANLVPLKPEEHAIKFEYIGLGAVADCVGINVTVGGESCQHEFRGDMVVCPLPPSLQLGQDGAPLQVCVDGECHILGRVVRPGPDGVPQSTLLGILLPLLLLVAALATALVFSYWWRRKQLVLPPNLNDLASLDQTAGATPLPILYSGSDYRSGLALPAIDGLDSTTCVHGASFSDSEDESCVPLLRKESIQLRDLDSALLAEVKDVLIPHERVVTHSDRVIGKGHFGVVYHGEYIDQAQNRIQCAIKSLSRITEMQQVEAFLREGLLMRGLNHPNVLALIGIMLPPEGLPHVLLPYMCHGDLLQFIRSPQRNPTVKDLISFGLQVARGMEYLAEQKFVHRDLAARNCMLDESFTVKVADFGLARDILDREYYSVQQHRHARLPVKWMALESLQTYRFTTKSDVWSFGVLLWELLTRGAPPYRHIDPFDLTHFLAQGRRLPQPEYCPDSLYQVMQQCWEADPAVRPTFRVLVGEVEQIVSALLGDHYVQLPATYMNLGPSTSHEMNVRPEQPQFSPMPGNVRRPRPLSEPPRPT
pIC50: −log10 of the molar value.
measure.name: pIC50

{"columns": ["structure.smiles.string", "recorded.value"],
 "data": [
  ["CCc1c(C(=O)Nc2ccc(Oc3ccnc(N)c3Cl)c(F)c2)cnn1-c1cncnc1", "6.30 to 7.30"],
  ["Cc1cccnc1-n1ncc(C(=O)Nc2ccc(Oc3ncnc(N)c3Cl)c(F)c2)c1C(F)(F)F", "6.30 to 7.30"],
  ["Nc1ncnc(Oc2ccc(NC(=O)c3cnn(-c4cc(F)ccn4)c3C(F)(F)F)cc2F)c1Cl", "6.30 to 7.30"]
]}

Field: next compound
# lookup: Nc1nccc(Oc2ccc(NC(=O)c3cnn(-c4ccncc4)c3C(F)(F)F)cc2F)c1Cl on RON (Homo sapiens, UniProt Q04912), pIC50 = 6.30 to 7.30

* * *

Consider compounds characterized by their pIC50 with cMET (Homo sapiens, UniProt P08581).
Sequence (P08581 25-1390): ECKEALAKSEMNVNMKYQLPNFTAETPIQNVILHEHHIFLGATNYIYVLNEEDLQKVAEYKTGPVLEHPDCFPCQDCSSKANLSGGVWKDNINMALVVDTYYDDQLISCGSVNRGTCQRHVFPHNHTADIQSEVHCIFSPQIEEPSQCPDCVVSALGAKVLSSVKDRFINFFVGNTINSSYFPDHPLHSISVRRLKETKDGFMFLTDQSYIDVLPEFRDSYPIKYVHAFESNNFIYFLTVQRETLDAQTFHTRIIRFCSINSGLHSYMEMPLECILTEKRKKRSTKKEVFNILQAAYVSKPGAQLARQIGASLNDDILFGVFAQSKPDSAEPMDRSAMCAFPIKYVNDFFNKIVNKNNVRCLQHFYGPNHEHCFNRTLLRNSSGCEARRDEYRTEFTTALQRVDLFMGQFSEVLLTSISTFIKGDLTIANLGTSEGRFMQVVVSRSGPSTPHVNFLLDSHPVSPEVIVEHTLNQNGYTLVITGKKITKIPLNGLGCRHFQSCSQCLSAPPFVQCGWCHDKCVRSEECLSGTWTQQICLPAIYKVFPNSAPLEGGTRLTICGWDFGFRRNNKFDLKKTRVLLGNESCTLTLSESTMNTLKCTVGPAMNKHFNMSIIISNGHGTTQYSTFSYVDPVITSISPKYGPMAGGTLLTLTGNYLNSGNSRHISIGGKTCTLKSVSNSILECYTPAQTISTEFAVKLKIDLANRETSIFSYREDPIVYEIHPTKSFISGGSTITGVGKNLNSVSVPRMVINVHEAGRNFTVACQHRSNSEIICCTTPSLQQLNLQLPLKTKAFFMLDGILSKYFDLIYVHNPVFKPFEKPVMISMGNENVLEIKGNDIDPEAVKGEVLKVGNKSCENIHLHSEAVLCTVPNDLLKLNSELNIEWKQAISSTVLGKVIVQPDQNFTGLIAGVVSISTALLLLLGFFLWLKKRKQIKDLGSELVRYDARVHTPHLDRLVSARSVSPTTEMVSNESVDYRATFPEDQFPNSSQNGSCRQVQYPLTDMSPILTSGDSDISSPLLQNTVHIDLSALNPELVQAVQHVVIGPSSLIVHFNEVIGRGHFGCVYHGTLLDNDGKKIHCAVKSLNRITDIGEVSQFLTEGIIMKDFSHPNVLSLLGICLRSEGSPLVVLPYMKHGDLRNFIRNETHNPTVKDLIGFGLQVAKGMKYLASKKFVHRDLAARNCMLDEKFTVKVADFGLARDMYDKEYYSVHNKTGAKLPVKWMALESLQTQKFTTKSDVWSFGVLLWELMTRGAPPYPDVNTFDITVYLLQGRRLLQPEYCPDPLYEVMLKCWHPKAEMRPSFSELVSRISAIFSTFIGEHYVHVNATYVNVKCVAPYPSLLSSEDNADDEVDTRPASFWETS
pIC50: −log10 of the molar value.

{"columns": ["structure.smiles.string", "pIC50"],
 "data": [
  ["CCOc1cccnc1-n1ncc(C(=O)Nc2ccc(Oc3ccnc(N)c3Cl)c(F)c2)c1C(F)(F)F", "5.30 to 6.30"]
]}

Notebook: Nc1ncnc(Oc2ccc(NC(=O)c3nc(-c4ccccc4)cs3)cc2F)c1Cl , pIC50 read as < 5.30

Notebook: Nc1nccc(Oc2ccc(NC(=O)c3cnn(-c4cccnc4)c3C(F)(F)F)cc2F)c1Cl , pIC50 read as 5.30 to 6.30

Notebook: COc1cccnc1-n1ncc(C(=O)Nc2ccc(Oc3ccnc(N)c3Cl)c(F)c2)c1C(F)(F)F , pIC50 read as 5.30 to 6.30

Notebook: Cc1cccc(-n2ncc(C(=O)Nc3ccc(Oc4ccnc(N)c4Cl)c(F)c3)c2C(F)(F)F)n1 , pIC50 read as 5.30 to 6.30

Notebook: Cc1cccc(-n2ncc(C(=O)Nc3ccc(Oc4ncnc(N)c4Cl)c(F)c3)c2C(F)(F)F)n1 , pIC50 read as < 5.30

Notebook: Nc1ncnc(Oc2ccc(NC(=O)c3cnn(-c4ccncc4)c3C(F)(F)F)cc2F)c1Cl , pIC50 read as < 5.30

Notebook: Nc1ncnc(Oc2ccc(NC(=O)c3cnn(-c4cccnc4)c3C(F)(F)F)cc2F)c1Cl , pIC50 read as < 5.30

Notebook: Nc1ncnc(Oc2ccc(NC(=O)c3cnn(-c4ncccc4C(F)(F)F)c3C(F)(F)F)cc2F)c1Cl , pIC50 read as 5.30 to 6.30

Notebook: O=C(Nc1ccc(Oc2ncnc(NC3CC3)c2Cl)c(F)c1)c1cnn(-c2ncccc2Cl)c1C(F)(F)F , pIC50 read as < 5.30

* * *

Consider molecules characterized by their IC50 with RON (Homo sapiens).

Notebook: CCOc1cccnc1-n1ncc(C(=O)Nc2ccc(Oc3ccnc(N)c3Cl)c(F)c2)c1C(F)(F)F , IC50 read as 0.05 to 0.5 µM

Notebook: Nc1cc(Oc2ccc(NC(=O)c3cnn(-c4ncccc4F)c3C(F)(F)F)cc2F)ccn1 , IC50 read as < 0.05 µM

Notebook: Nc1nccc(Oc2ccc(NC(=O)c3cnn(-c4ccccn4)c3C(F)(F)F)cc2F)c1Cl , IC50 read as < 0.05 µM

Notebook: Cc1cccc(-n2ncc(C(=O)Nc3ccc(Oc4ncnc(N)c4Cl)c(F)c3)c2C(F)(F)F)n1 , IC50 read as 0.5 to 5 µM

Notebook: CCc1c(C(=O)Nc2ccc(Oc3ccnc(N)c3Cl)c(F)c2)cnn1-c1ccncc1 , IC50 read as 0.5 to 5 µM

// provenance: patent US20240425480A1
